Tested on: Fibroblast
PROTOCOL_DETAILS: Multiplex assay against human fibroblast
Type: toxicity, cell-based
ASSAY_SETUP: 12 h, 10 µM, compound concentration 10 uM, replicate 2
Quick rule for you: Population Pyknosed Nuclei (%) at 10% or higher means true (1), lower means false (0).

{"columns": ["COMPOUND", "LABEL_VALUE"],
 "data": [
  ["Cl.N#Cc1ccc2[nH]cc(CCCCN3CCN(c4ccc5oc(C(N)=O)cc5c4)CC3)c2c1 [VILAZODONE HYDROCHLORIDE]", "true (1)"],
  ["Cn1cc(-c2[nH]c3cc(NC(=O)[C@H](N)C4CCCCC4)cc4c3c2C=NNC4=O)cn1", "true (1)"],
  ["c1cn2cc(-c3ccc4cn[nH]c4c3)nc(Nc3ccc(N4CCOCC4)cc3)c2n1", "true (1)"],
  ["CC(C)NCC(O)COc1ccc(CCOCC2CC2)cc1.Cl (stereo not given) [BETAXOLOL HYDROCHLORIDE]", "true (1)"],
  ["O=C1NCN(c2ccccc2)C12CCN(CCCOc1ccc(F)cc1)CC2 [SPIRAMIDE]", "false (0)"],
  ["Cc1[nH]c(/C=C2\\C(=O)Nc3ccc(S(=O)(=O)N(C)c4cccc(Cl)c4)cc32)c(C)c1C(=O)N1CCN(C)CC1", "true (1)"],
  ["Cc1cc(C)cc(-c2cnc3cc(Cl)c(-c4cccc(O)c4)cc3c2OCCCN)c1", "true (1)"],
  ["C[C@@H](NCCCc1cccc(C(F)(F)F)c1)c1cccc2ccccc12.Cl [CINACALCET HYDROCHLORIDE]", "true (1)"]
]}

Q: Textbook exercise: given the entry CCN(CC)CCCCNc1ncc2cc(-c3cc(OC)cc(OC)c3)c(NC(=O)NC(C)(C)C)nc2n1 , state whether its Population Pyknosed Nuclei (%) is greater than or equal to 10%.
Ans: true (1)

Q: Textbook exercise: given the entry CC(C)(O)CNc1ncc(-c2ccnc(Nc3ccnc(Cl)c3)n2)c(CC2CC2)n1 , state whether its Population Pyknosed Nuclei (%) is greater than or equal to 10%.
Ans: true (1)

Q: Textbook exercise: given the entry Cc1nc(-c2cn3c(n2)-c2ccc(-c4cnn(C(C)(C)C(N)=O)c4)cc2OCC3)n(C(C)C)n1 , state whether its Population Pyknosed Nuclei (%) is greater than or equal to 10%.
Ans: false (0)

Q: Textbook exercise: given the entry C=CC(=O)Nc1cc2c(Nc3ccc(F)c(Cl)c3)ncnc2cc1OCCCN1CCOCC1.Cl.Cl [CANERTINIB DIHYDROCHLORIDE] , state whether its Population Pyknosed Nuclei (%) is greater than or equal to 10%.
Ans: false (0)

Q: Textbook exercise: given the entry CN(C)C(=O)N[C@H]1CC[C@H](CCN2CCN(c3cccc(Cl)c3Cl)CC2)CC1.Cl [CARIPRAZINE HYDROCHLORIDE] , state whether its Population Pyknosed Nuclei (%) is greater than or equal to 10%.
Ans: true (1)

Q: Textbook exercise: given the entry Cc1nc(Nc2n[nH]c3c2CN(C(=O)N[C@H](CN(C)C)c2ccccc2)C3(C)C)c2sccc2n1 , state whether its Population Pyknosed Nuclei (%) is greater than or equal to 10%.
Ans: true (1)

Q: Textbook exercise: given the entry C=CC(=O)Nc1ccc2ncnc(Nc3ccc(OCc4cccc(F)c4)c(Cl)c3)c2c1.Cc1ccc(S(=O)(=O)O)cc1 , state whether its Population Pyknosed Nuclei (%) is greater than or equal to 10%.
Ans: false (0)
